Target: placental alkaline phosphatase (human)
Test: placental alkaline phosphatase activators or inhibitors – biochemical, human PLAP, set 2, selectivity assay for mouse IAP activator project, SAR follow-up (AID 588607)
Details: purified PLAP, CDP-Star luminescence, 30 min
reported-property: IC50 (inhibition of PLAP activity)

# annotated cases, reported IC50 (inhibition of PLAP activity) shown
>  <compound>
CC(CCc1ccccc1)NC(=S)Nc1cccc(S(=O)(=O)N(C)C)c1 (stereo not given)

>  <IC50 (inhibition of PLAP activity)>
69.2 µM

$$$$
>  <compound>
Cc1ccc(CNC(=S)Nc2cccc(S(=O)(=O)N(C)C)c2)cc1

>  <IC50 (inhibition of PLAP activity)>
82.8 µM

$$$$
>  <compound>
CN(C)S(=O)(=O)c1ccc(NC(=S)NCCC(c2ccccc2)c2ccccc2)cc1

>  <IC50 (inhibition of PLAP activity)>
35 µM

$$$$
>  <compound>
CCN(CC)S(=O)(=O)c1ccc(NC(=S)NCCC(c2ccccc2)c2ccccc2)cc1

>  <IC50 (inhibition of PLAP activity)>
52.5 µM

$$$$
>  <compound>
CN(C)S(=O)(=O)c1cccc(NC(=S)NCCC(c2ccccc2)c2ccccc2)c1

>  <IC50 (inhibition of PLAP activity)>
93 µM

$$$$

Please look up its IC50 (inhibition of PLAP activity): COc1cccc(CCNC(=S)Nc2cccc(S(=O)(=O)N(C)C)c2)c1
78.6 µM

Queued: CN(C)S(=O)(=O)c1cccc(NC(=S)NCCc2ccccc2)c1
86.6 µM

What about this compound? COc1cccc(CNC(=S)Nc2ccc(S(=O)(=O)N(C)C)cc2)c1
91 µM

# repeat for CN(C)S(=O)(=O)c1cccc(NC(=S)NC(C)(C)CC(C)(C)C)c1
85.7 µM

Entry to check: COc1ccccc1CNC(=S)Nc1ccc(S(=O)(=O)N(C)C)cc1
69.6 µM

====

Quick list: IC50 (inhibition of PLAP activity) per entry.
Target: placental alkaline phosphatase (human)
Assay: placental alkaline phosphatase activators or inhibitors – biochemical, human PLAP, set 2, selectivity assay for mouse IAP activator project, SAR follow-up (AID 588607)
Settings: purified PLAP, CDP-Star luminescence, 30 min

>  <compound>
CN(C)S(=O)(=O)c1ccc(NC(=S)NCC(c2ccccc2)c2ccccc2)cc1

>  <IC50 (inhibition of PLAP activity)>
40.8 µM

$$$$
>  <compound>
CN(C)S(=O)(=O)c1ccc(NC(=S)NC(c2ccccc2)c2ccccc2)cc1

>  <IC50 (inhibition of PLAP activity)>
29 µM

$$$$
>  <compound>
Cc1ccc(S(=O)(=O)N(C)C)cc1NC(=S)NC(C)CCC(C)C (stereo not given)

>  <IC50 (inhibition of PLAP activity)>
78.5 µM

$$$$
>  <compound>
CN(C)S(=O)(=O)c1ccc(NC(=S)NCCc2cccc(Br)c2)cc1

>  <IC50 (inhibition of PLAP activity)>
57 µM

$$$$

Continue with the compound presented below.
Consider the compound CN(C)S(=O)(=O)c1cccc(NC(=S)NC(c2ccccc2)c2ccccc2)c1 and give its measured IC50 (inhibition of PLAP activity).
31.2 µM

====

Below: a set of entries, each annotated with reported IC50 (inhibition of PLAP activity).
Biological target: placental alkaline phosphatase (human)
Assay: placental alkaline phosphatase activators or inhibitors – biochemical, human PLAP, set 2, selectivity assay for mouse IAP activator project, SAR follow-up (AID 588607)
Conditions: purified PLAP, CDP-Star luminescence, 30 min

Solved cases below.
>  <structure>
O=S(=O)(c1ccc(NC(=S)NCCC(c2ccccc2)c2ccccc2)cc1)N1CCCC1

>  <IC50 (inhibition of PLAP activity)>
42 µM

$$$$
>  <structure>
O=S(=O)(c1ccc(NC(=S)NCCC(c2ccccc2)c2ccccc2)cc1)N1CCCCC1

>  <IC50 (inhibition of PLAP activity)>
38.6 µM

$$$$
>  <structure>
CC1CCN(S(=O)(=O)c2ccc(NC(=S)NC(c3ccccc3)c3ccccc3)cc2)CC1

>  <IC50 (inhibition of PLAP activity)>
47.2 µM

$$$$
>  <structure>
Cc1ccc(CNC(=S)Nc2ccc(S(=O)(=O)N(C)C)cc2)cc1

>  <IC50 (inhibition of PLAP activity)>
78.6 µM

$$$$
>  <structure>
COc1ccc(CNC(=S)Nc2ccc(S(=O)(=O)N3CCCCC3)cc2)cc1OC

>  <IC50 (inhibition of PLAP activity)>
68.6 µM

$$$$
>  <structure>
COc1ccc(CCNC(=S)Nc2ccc(S(=O)(=O)N3CCCCC3)cc2)cc1OC

>  <IC50 (inhibition of PLAP activity)>
81.9 µM

$$$$
>  <structure>
CN(C)S(=O)(=O)c1cccc(NC(=S)NCCc2ccc(Br)cc2)c1

>  <IC50 (inhibition of PLAP activity)>
92 µM

$$$$

Let us move to another entry and its IC50 (inhibition of PLAP activity).
# IC50 (inhibition of PLAP activity) lookup, item CCN(CC)S(=O)(=O)c1ccc(NC(=S)NC(c2ccccc2)c2ccccc2)cc1
26.3 µM
